Please respond with reported LDH release cytotoxicity for every item in the list.
- Test system: HepaRG
- methodSummary: LDH release cytotoxicity, % of total lysis control; higher = more cytotoxic
- recordedConditions: 0.316228 µM; 48 h
Dear colleague, please return just the value in %, with no unit written.

Task: Which LDH release cytotoxicity value belongs to CCCCN(CC)c1c([N+](=O)[O-])cc(C(F)(F)F)cc1[N+](=O)[O-] ?
Output: -1.78

Task: // query LDH release cytotoxicity value for entry CC1=NC(=O)N(C(C)(C)C)C(=O)C1Cl (stereo not drawn)
Output: -2.5

Task: What does the data say about its LDH release cytotoxicity? Entry: O=[N+]([O-])C(Br)(CO)CO
Output: -2.69

###

- Tested on: HepaRG
- methodSummary: LDH release cytotoxicity, % of total lysis control; higher = more cytotoxic
- recordedConditions: 100 µM; 48 h
Where a name gives a salt, the structure may show the parent alone.
Exercise: state measured LDH release cytotoxicity for each of the compounds provided.
Answer format: numeric, % implied, no suffix.

Task: Request the reported LDH release cytotoxicity associated with c1ccc(N=Nc2ccccc2)cc1 [Azobenzene]
Output: 3.66

Task: Request the reported LDH release cytotoxicity associated with CCCCCCCCCCCCCCCC [Hexadecane]
Output: -0.385

Task: Fill blank: measured LDH release cytotoxicity of the compound CC(=O)OCCC(C)C [3-Methylbutyl acetate] is ____.
Output: 2.4

Task: State the recorded LDH release cytotoxicity for this entry: O=C(O)C1(c2ccc3c(c2)OCC(Cc2ccc(-c4ccccc4)cc2)C3O)CCCC1 (stereo not given)
Output: 72.9

Task: # lookup: LDH release cytotoxicity of O=C1NS(=O)(=O)c2ccccc21 [Sodium saccharin hydrate]
Output: 1.33

Task: Which LDH release cytotoxicity reading was recorded for the compound CC(N)=O [Acetamide] ?
Output: 1.3

Task: What value of LDH release cytotoxicity has been reported for the following compound? CCCN(CCC)c1c([N+](=O)[O-])cc(C(C)C)cc1[N+](=O)[O-] [Isopropalin]
Output: -0.986

Task: Please give the measured LDH release cytotoxicity for this compound: CCc1cc(C2=C(C(=O)O)N(c3ccccc3C(F)(F)F)S(=O)(=O)c3ccccc32)cc2c1OCO2 [Fandosentan potassium salt]
Output: 48.4

Task: Reported LDH release cytotoxicity for O=P(Oc1ccccc1)(Oc1ccccc1)Oc1ccccc1 [Triphenyl phosphate] : what is it?
Output: 27.1

Task: Suppose we examine the compound CCCCOC(=O)c1ccccc1C(=O)OCc1ccccc1 [Benzyl butyl phthalate] ; what LDH release cytotoxicity value has been reported?
Output: 0.329

###

What LDH release cytotoxicity was measured for each of the following?
- Test system: HepaRG
- methodSummary: LDH release cytotoxicity, % of total lysis control; higher = more cytotoxic
- recordedConditions: 31.6228 µM; 48 h
All answers are understood in %, so give the number only.

Task: Form field: reported LDH release cytotoxicity of O=C(NC1CN2CCC1CC2)c1ccc2c(c1)OCCO2 (configuration not stated)
Output: -1.38

Task: Which value of LDH release cytotoxicity has been reported for COc1ccc(C(=O)Nc2nc3ccccc3c(NCc3ccccc3)c2C#N)cc1 in the records?
Output: 4.87

Task: Look up LDH release cytotoxicity for this compound: Oc1ccc2ccccc2c1 [2-Naphthalenol]
Output: 0.851

Task: I have this compound here, Cc1cc(SC2C(=O)CC(CCc3ccc(N)cc3)(C(C)C)OC2=O)c(C(C)(C)C)cc1CO (configuration not stated) [CI-1029] , and I need its recorded LDH release cytotoxicity.
Output: -3.96

Task: // lookup LDH release cytotoxicity for CCNc1nc(Cl)nc(NCC)n1 [Simazine]
Output: -0.91

Task: Recorded LDH release cytotoxicity of N#CCCCCC#N [Hexanedinitrile] , please.
Output: -0.494

Task: Could you tell me which LDH release cytotoxicity is on file for Cc1cc(Cl)ccc1OCC(=O)O [MCPA] ?
Output: 0.865

Task: Quick check: LDH release cytotoxicity of [OH-].c1cc[c]([Sn+]([c]2ccccc2)[c]2ccccc2)cc1 [Triphenyltin hydroxide] ?
Output: 63.5

Task: Can you share its LDH release cytotoxicity? I mean this compound: COc1c(Cl)ccc(Cl)c1C(=O)O [Dicamba]
Output: -0.688

Task: # LDH release cytotoxicity lookup, item CS(=O)(=O)c1cc(C(F)(F)F)ccc1C(=O)c1cnoc1C1CC1 [Isoxaflutole]
Output: -0.687

Task: Sample CC(=O)OC1CC(C)OC(C)O1 (configuration not stated) [Dimethoxane] — what was its LDH release cytotoxicity?
Output: -1.51

Task: Which LDH release cytotoxicity is listed for CC(C)(O)c1ccc(CNC(=O)c2cccnc2Oc2ccc(F)cc2)cc1 ?
Output: -1.34

Values compiled from the supplement of paper PMC7840683.
